Would you mind telling me the reported %Inh of each entry?
- Tested on: MST1;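 also: KINOMEscan kinase panel screen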
- Construct: gene STK4
- REPORTED_CONDITIONS: concentration: 1 μM,replicates: in singlicate; n = 1
Numbers only, in %.

# count of solved cases: 4
[
  {
    "SAMPLE_SMILES": "O=c1[nH]cc(-c2ccc(O)cc2)c2sc(-c3ccncc3)cc12",
    "MEASUREMENT_UNITS": "%",
    "%Inh": 1
  },
  {
    "SAMPLE_SMILES": "Cl.Nc1n[nH]c2cc(-c3ccccn3)ccc12",
    "MEASUREMENT_UNITS": "%",
    "%Inh": 0
  },
  {
    "SAMPLE_SMILES": "C[C@@H]1CNc2c(sc3ccc4nc(-c5ccncc5)ccc4c23)C(=O)N1",
    "MEASUREMENT_UNITS": "%",
    "%Inh": 2
  },
  {
    "SAMPLE_SMILES": "Cc1ccn2nc(-c3ccc(F)cc3)c(-c3ccncc3)c2c1.Cl",
    "MEASUREMENT_UNITS": "%",
    "%Inh": 0
  }
]

Parameter requested: %Inh. Apply to each item below.
1. O=C(NOCC1CC1)c1cc(Br)c(F)c(F)c1Nc1ccc(I)cc1Cl
2. COc1cc2nccc(Nc3ccc(Oc4ccccc4)cc3)c2cc1OC.Cl

[3, 0]

Every entry's value here was drawn from paper PMC5540273.
